Just for reference, PubChem BioAssay (NCI) is where these values come from.

- System: HCT-15 colon
- protocolDetails: NCI-60 one-dose screen, 48 h (100 = growth as untreated, 0 = no growth, -100 = all killed)
- experimentalContext: 10 µM unless noted
About 83,000 compounds went through this panel and 20% of them were active in at least one assay; those are over-represented in the sample as a whole.
Exercise: state measured growth for each of the molecules provided.
Numbers only, in %.

Answered examples (6):
| molecule | growth [%] |
| --- | --- |
| CN1C(=O)/C(=C/c2ccc(C(=O)Nc3ncc(Cc4ccc(Cl)cc4Cl)s3)cc2)SC1=S | 25.7 |
| N#Cc1c(-c2ccccc2Cl)cc(-c2ccc3ccccc3c2)[nH]c1=O | 63.2 |
| COc1ccc2oc3c4[nH]c5ccccc5c4c4c(c3c2c1)C(=O)N(C(=O)OC(C)(C)C)C4=O | -23.2 |
| CN(C)c1nc(NCCNS(=O)(=O)c2ccc(C(=O)/C=C/c3ccc(Cl)cc3)cc2)nc(Nc2ccc(F)cc2)n1 | -84.4 |
| COc1cc(C2CC(c3cc(OC)c(OC)c(OC)c3)=Nc3c(N)nc(N)nc3N2)ccc1Oc1nc(NCCO)nc(N2CCOCC2)n1 (stereo not drawn) | 102 |
| NS(=O)(=O)c1ccc(CCNC(=O)CSc2ccc(-c3ccc(Br)cc3)nn2)cc1 | 97.4 |

Provide reported growth for each item, in the same order as listed.
1. CCOC(=O)c1ccc(Nc2nc(NN)nc(-c3ccc(OC)cc3)c2C#N)cc1
2. C=C1CC[C@@H]2[C@]3(C)COC(c4cn[nH]c4-c4ccc(Br)cc4)O[C@@H]3CC[C@@]2(C)[C@@H]1C/C=C1/C(=O)OCC1O (stereo partly drawn)

Reply text:
1. 106
2. -62.6

----------
- System: PC-3 prostate
- protocolDetails: NCI-60 one-dose screen, 48 h
- experimentalContext: 10 µM unless noted
The panel holds about 83,000 compounds, 20% with a hit somewhere; the sample as a whole holds those more often. Activity calls are given as the source filed them. How the source made its calls: active means growth percent below 10; inactive means the rest.
Hello, when you answer, please use one of the following outcomes: true for active, false for inactive

Worked set:
| compound | measurementTarget | categoryLabel |
| --- | --- | --- |
| COc1ccc(C(=O)/C=C/c2ccccc2Br)cc1S(N)(=O)=O | PC-3 prostate | false |
| CC1(C)CC[C@]2(C(=O)Nc3ccc(Br)cc3)CC[C@]3(C)C(=CCC4[C@@]5(C)C[C@@H](O)[C@H](O)[C@@](C)(CO)C5CC[C@]43C)C2C1 (stereo partly drawn) | PC-3 prostate | true |
| CN(C)c1nc(NCCNS(=O)(=O)c2ccc(C(=O)/C=C/c3ccc(C(F)(F)F)cc3)cc2)nc(Nc2ccc(F)cc2)n1 | PC-3 prostate | true |
| O=C(Nc1ccccc1)N1CCN(c2cc(-c3cn(-c4ccccc4)nc3-c3cccc(O)c3)ccn2)CC1 | PC-3 prostate | false |
| Nc1nc(-c2ccccc2)c(N=Nc2ccc(Cl)cc2[N+](=O)[O-])s1 | PC-3 prostate | false |

Inquiry: Check the results log: what was the call for "CC(=O)Nc1cccc(Nc2nc(N[C@H]3CCCc4ccccc43)c3ccccc3n2)c1" ?
Reply text: false

Inquiry: Check the results log: what was the call for "COc1ccc(-c2nc3cc(C)ccc3n2CC(=O)N=Nc2c(O)[nH]c3ccc(Cl)cc23)cc1" ?
Reply text: true

Inquiry: Check the results log: what was the call for "O=C(O)c1ccc(-c2ccc(/C=N/NC(=O)c3[nH]c4ccc(Br)cc4c3-c3ccccc3)o2)cc1" ?
Reply text: false

----------
Exercise: state measured growth for each of the molecules provided.
- Test system: RPMI-8226 leukemia
- protocolDetails: NCI-60 one-dose screen, 48 h (100 = growth as untreated, 0 = no growth, -100 = all killed)
- experimentalContext: 10 µM unless noted
About 83,000 compounds went through this panel and 20% of them were active in at least one assay; those are over-represented in the sample as a whole. Activity calls are given as the source filed them. Rule for the calls: active = growth percent below 10; inactive = the rest.

Answered examples (2):
| molecule | growth |
| --- | --- |
| S=C(Nc1ccccc1)Nc1ccc(OCc2nc3ccccc3[nH]2)cc1 | 39.2% (inactive) |
| COc1c(F)ccc(C(=O)Nc2ccc3nc(NC(=O)C4CCCN(S(=O)(=O)c5ccc(Cl)cc5)C4)sc3c2)c1F (centres undefined) | 53.8% (inactive) |

Provide reported growth for each item, in the same order as listed.
1. COc1ccc(NC(=O)Nc2ccc(OCc3ccc(F)cc3)cc2)cc1
2. N/C(=N\N=C\c1ccc([N+](=O)[O-])cc1)c1c(N)nc(=S)[nH]c1-c1ccc(Cl)cc1Cl

Reply text:
1. 88.7% (inactive)
2. 97.3% (inactive)

----------
Exercise: state measured growth for each of the molecules provided.
- Tested on: NCI-H322M lung
- protocolDetails: NCI-60 one-dose screen, 48 h (100 = growth as untreated, 0 = no growth, -100 = all killed)
- experimentalContext: 10 µM unless noted
About 83,000 compounds went through this panel and 20% of them were active in at least one assay; those are over-represented in the sample as a whole. Active and inactive are the calls of the source. How the source made its calls: active means growth percent below 10; inactive means the rest.

Answered examples (4):
| molecule | growth |
| --- | --- |
| CCOC(=O)C1=C(N)N(c2ccccc2)C2=C(C(=O)CC(C)(C)C2)C1c1ccc(Cl)cc1Cl (centres undefined) | 56.8% (inactive) |
| COc1ccc2c(c1)c(-c1cc3nc(-c4cn(C)c5ncc(Br)cc45)cc(N)n3n1)cn2C | -39.8% (active) |
| O=C(COc1ccc(NC(=O)Nc2ccc(Cl)c(Cl)c2)cc1)N=Nc1c(O)[nH]c2ccc(Cl)cc12 | -5.99% (active) |
| Cc1ccc(Cc2cnc(NC(=O)c3ccc(/C=C4\SC(=S)N(C)C4=O)cc3)s2)cc1 | 35.9% (inactive) |

Provide reported growth for each item, in the same order as listed.
1. C/C(=N\N=C1/C(=O)Nc2ccc(Cl)cc21)c1ccc2c(c1)Nc1ccccc1S2
2. Cn1cc(-c2cc(N)n3nc(-c4c[nH]c5ccccc45)cc3n2)c2cccnc21

Reply text:
1: 28.3% (inactive); 2: 44.7% (inactive)

Provide reported growth for each item, in the same order as listed.
1. CN1CCN(c2ccc(C(=O)/C=C/c3cc(C(F)(F)F)cc(C(F)(F)F)c3)cc2)CC1
2. O=c1[nH]c2ccccc2cc1CSc1cccc(Nc2nccc(-c3ccc4ccccc4c3)n2)c1
3. CN(C)CCn1c2ccccc2c2nc3ccc([N+](=O)[O-])cc3nc21
4. COc1cc2oc(-c3cccc(NC(=O)[C@H](CC(N)=O)NC(=O)OC(C)(C)C)c3)cc(=O)c2c(OC)c1OC
5. Cc1ccc([C@H]2C(C(=O)c3ccc(Cl)cc3)C3(N[C@@H]2c2ccccc2)C(=O)Nc2ccc(Br)cc23)cc1 (some centres undefined)

Reply text:
["-81.7% (active)", "106% (inactive)", "11.3% (inactive)", "101% (inactive)", "69.1% (inactive)"]

Provide reported growth for each item, in the same order as listed.
1. CCOC(=O)/C=C/c1cccc2c1C(=O)NC(C)(c1cc3cc(Br)ccc3oc1=O)N2 (centres undefined)
2. COc1ccc(/C=C/c2n(Cc3ccc4ccccc4c3)c3ccccc3[n+]2Cc2ccc3ccccc3c2)cc1
3. Cc1cc2nc3c4ccccc4n(CCNCCN(C)C)c3nc2cc1C
4. CC(=O)N1CCN(Cc2ccc3c(NNC(=O)c4cnccn4)nc4cc(F)ccc4n23)CC1
5. COc1ccc(NC(=O)Nc2ccc(OCc3ccc(F)cc3)cc2)cc1
6. Cc1ccccc1[C@H]1C(C(=O)c2ccc(Cl)cc2)C2(N[C@@H]1c1ccccc1)C(=O)Nc1ccccc12 (some centres undefined)

Reply text:
1. 88% (inactive)
2. -96.2% (active)
3. 36.3% (inactive)
4. 32.7% (inactive)
5. 65.8% (inactive)
6. 16.6% (inactive)

Provide reported growth for each item, in the same order as listed.
1. CC1=C(C(=O)OC(C)C)C(c2cccc(O)c2)NC(=S)N1 (centres undefined)
2. C=C1CCC2C3(C)COC(c4ccccc4F)OC3CCC2(C)C1CC(O)C1=CCOC1=O (centres undefined)

Reply text:
1. 103% (inactive)
2. 99.5% (inactive)

----------
- Tested on: U251 CNS
- protocolDetails: NCI-60 one-dose screen, 48 h (100 = growth as untreated, 0 = no growth, -100 = all killed)
- experimentalContext: 10 µM unless noted
The panel holds about 83,000 compounds, 20% with a hit somewhere; the sample as a whole holds those more often.
In plain terms, low growth, meaning strictly below 30%, gives MET, and everything else gives NOT MET.

Worked set:
| molecule | categoryLabel |
| --- | --- |
| N/C(=N\c1nc2ccccc2s1)NC(=O)NCCCCCCO | NOT MET |
| Cc1ccc(S(=O)(=O)c2nc(S(=O)(=O)c3ccc(C)cc3)c(Cl)s2)cc1 | MET |
| N#Cc1c(NCc2ccccc2)n[nH]c1Nc1ccccc1 | NOT MET |
| CC(/C=C1\SC(=S)N(CCCC(=O)NC(CC(C)C)C(=O)O)C1=O)=C\c1ccccc1 (centres undefined) | NOT MET |

Inquiry: Input "O=C(COc1ccc(NC(=O)Nc2ccc(Cl)cc2)cc1)N/N=C/c1ccccc1" ; condition: growth strictly below 30%. Does it hold?
Reply text: MET

Inquiry: Input "Cc1ccc(C(=O)CSc2nc3ccc(C)cc3c(=O)n2-c2ccc(F)cc2)cc1" ; condition: growth strictly below 30%. Does it hold?
Reply text: MET

Inquiry: Input "COc1cc(CNC(=O)/C=C/c2ccc3c(c2)OCO3)ccc1OCc1cn(-c2cccc(C(F)(F)F)c2)nn1" ; condition: growth strictly below 30%. Does it hold?
Reply text: MET

Inquiry: Input Cc1ccc(NC(=O)[C@]23CCC(C)(C)CC2C2=CCC4[C@@]5(C)C[C@@H](O)[C@H](O)[C@@](C)(CO)C5CC[C@@]4(C)[C@]2(C)CC3)cc1 (some centres undefined) ; condition: growth strictly below 30%. Does it hold?
Reply text: MET

Inquiry: Input "O=C1C(=Nc2ccc(F)c(Cl)c2)c2cccc3cccc1c23" ; condition: growth strictly below 30%. Does it hold?
Reply text: MET

Inquiry: Input C=C1CCC2C3(C)COC(c4cc(F)cc(F)c4)OC3CCC2(C)C1CC(O)C1=CCOC1=O (centres undefined) ; condition: growth strictly below 30%. Does it hold?
Reply text: NOT MET

Inquiry: Input "Cc1c(C(=O)NNC(=O)c2ccc(Cl)cc2)nnn1-c1ccc(Br)cc1" ; condition: growth strictly below 30%. Does it hold?
Reply text: NOT MET

Inquiry: Input "COc1cc(-c2ccc(/C=N/NC(=O)c3[nH]c4ccc(Br)cc4c3-c3ccccc3)s2)cc(OC)c1OC" ; condition: growth strictly below 30%. Does it hold?
Reply text: NOT MET

Inquiry: Input "CCC(C)(C)c1ccc(OCCCCN2CCN(c3ccncc3)CC2)cc1" ; condition: growth strictly below 30%. Does it hold?
Reply text: MET

Inquiry: Input "C[C@H](Nc1nc(NCCc2ccccc2)nc2ccccc12)c1ccccc1" ; condition: growth strictly below 30%. Does it hold?
Reply text: MET

Inquiry: Input "O=C(Cn1nc(-c2ccccc2)ccc1=O)N/N=C/c1ccc(N2CCOCC2)cc1" ; condition: growth strictly below 30%. Does it hold?
Reply text: NOT MET

Inquiry: Input "Cn1cc(-c2cc3nc(-c4cn(C)c5ncc(Br)cc45)cc(N)n3n2)c2ccccc21" ; condition: growth strictly below 30%. Does it hold?
Reply text: MET

Inquiry: Input COc1cc(C2CC(c3cc(OC)c(OC)c(OC)c3)=NN2C(C)=O)ccc1OCc1ccc(F)cc1 (centres undefined) ; condition: growth strictly below 30%. Does it hold?
Reply text: NOT MET

Inquiry: Input "COc1cc2oc(-c3cccc(C(=O)Nc4ccc(Cl)cc4)c3)cc(=O)c2c(OCC(=O)N[C@@H](Cc2ccccc2)C(=O)O)c1OC" ; condition: growth strictly below 30%. Does it hold?
Reply text: NOT MET

Inquiry: Input "COc1ccc(/C=C2\C(=N)N=C(SCc3nc4ccccc4[nH]3)NC2=O)cc1" ; condition: growth strictly below 30%. Does it hold?
Reply text: NOT MET
